# Test system: Staphylococcus aureus MW2 (mecA+)
# Assay Name: normalized DsRed fluorescence (growth of mecA+ strain) (fraction of control range); higher = more growth of mecA+ strain
# Condition Parameters: compound concentration: 150 uM; cefoxitin: subinhibitory; fluorescent label: DsRed
Label rule, in plain words: normalized DsRed fluorescence of 0.7 and up is 1 (yes), under 0.7 is 0 (no).

INSERT INTO assay_data (compound, assigned_label) VALUES
  ('C=C1/C(=C\C=C2/CCC[C@]3(C)[C@@H]([C@H](C)CCCC(C)(C)O)CC[C@@H]23)C[C@@H](O)C[C@@H]1O [Calcitriol (Rocaltrol)]', '1 (yes)'),
  ('CN(c1nccc(=O)[nH]1)C1CCN(c2nc3ccccc3n2Cc2ccc(F)cc2)CC1', '0 (no)'),
  ('CC1(C)O[C@@H]2C[C@H]3[C@@H]4CCC5=CC(=O)C=C[C@]5(C)[C@H]4[C@@H](O)C[C@]3(C)[C@]2(C(=O)CO)O1', '1 (yes)'),
  ('CCOC(=O)[C@H](CCc1ccccc1)N[C@@H](C)C(=O)N1CCC[C@H]1C(=O)O', '0 (no)'),
  ('OC[C@H]1O[C@H]([S-])[C@H](O)[C@@H](O)[C@@H]1O.[Au+]', '0 (no)'),
  ('CC/C(=C(/CC)c1ccc(O)cc1)c1ccc(O)cc1', '0 (no)');

---

# System: Staphylococcus aureus MW2 delta-mecA (mecA-)
# Assay Name: normalized GFP fluorescence (growth of mecA- strain) (fraction of control range); higher = more growth of mecA- strain
# Condition Parameters: compound concentration: 150 uM; cefoxitin: subinhibitory; fluorescent label: GFP
Classes are defined on normalized GFP fluorescence with ranges lo = under 0.2, mid = from 0.2 up to 0.5, hi = 0.5 and over

INSERT INTO assay_data (molecule, target_desc, assigned_label) VALUES
  ('CC1(C)O[C@@H]2C[C@H]3[C@@H]4CCC5=CC(=O)C=C[C@]5(C)[C@H]4[C@@H](O)C[C@]3(C)[C@]2(C(=O)CO)O1', 'Staphylococcus aureus MW2 delta-mecA (mecA-)', 'mid'),
  ('O=C(CCBr)N1CCN(C(=O)CCBr)CC1', 'Staphylococcus aureus MW2 delta-mecA (mecA-)', 'hi'),
  ('CCN(CC)CC#CCOC(=O)C(O)(c1ccccc1)C1CCCCC1 (stereo not drawn)', 'Staphylococcus aureus MW2 delta-mecA (mecA-)', 'lo'),
  ('Nc1nc2c(ncn2COC(CO)CO)c(=O)[nH]1', 'Staphylococcus aureus MW2 delta-mecA (mecA-)', 'mid'),
  ('COc1ccc2c(c1OC)C(=O)O[C@@H]2[C@H]1c2c(cc3c(c2OC)OCO3)CCN1C', 'Staphylococcus aureus MW2 delta-mecA (mecA-)', 'mid'),
  ('C[C@H](CS)C(=O)N1CCC[C@H]1C(=O)O', 'Staphylococcus aureus MW2 delta-mecA (mecA-)', 'mid'),
  ('C[C@]12C=CC(=O)N[C@@H]1CC[C@@H]1[C@@H]2CC[C@]2(C)[C@@H](C(=O)Nc3cc(C(F)(F)F)ccc3C(F)(F)F)CC[C@@H]12 [Dutasteride]', 'Staphylococcus aureus MW2 delta-mecA (mecA-)', 'mid'),
  ('CCC(CC)[C@H](NC(C)=O)[C@@H]1[C@H](O)[C@@H](C(=O)O)C[C@H]1NC(=N)N [Peramivir Trihydrate]', 'Staphylococcus aureus MW2 delta-mecA (mecA-)', 'hi'),
  ('CCCCCCCCCCC[C@@H](C[C@@H]1OC(=O)[C@H]1CCCCCC)OC(=O)[C@H](CC(C)C)NC=O', 'Staphylococcus aureus MW2 delta-mecA (mecA-)', 'hi'),
  ('Nc1nc(CC(=O)Nc2ccc(CCNC[C@H](O)c3ccccc3)cc2)cs1', 'Staphylococcus aureus MW2 delta-mecA (mecA-)', 'mid'),
  ('Nc1ccc(S(=O)(=O)c2ccc(N)cc2)cc1', 'Staphylococcus aureus MW2 delta-mecA (mecA-)', 'mid'),
  ('CCOC(=O)C1=C(COCCN)NC(C)=C(C(=O)OC)C1c1ccccc1Cl (stereo not drawn)', 'Staphylococcus aureus MW2 delta-mecA (mecA-)', 'lo'),
  ('Oc1c(Cl)cc(Cl)c(Cl)c1Cc1c(O)c(Cl)cc(Cl)c1Cl', 'Staphylococcus aureus MW2 delta-mecA (mecA-)', 'lo'),
  ('C[C@@H](O)[C@H]1C(=O)N2C(C(=O)O)=C(SCCNC=N)C[C@H]12', 'Staphylococcus aureus MW2 delta-mecA (mecA-)', 'lo'),
  ('CC(CCc1ccccc1)NCC(O)c1ccc(O)c(C(N)=O)c1 (stereo not drawn)', 'Staphylococcus aureus MW2 delta-mecA (mecA-)', 'hi'),
  ('COC(=O)[C@H]1[C@H]2C[C@@H]3c4[nH]c5cc(OC)ccc5c4CCN3C[C@H]2C[C@@H](OC(=O)c2cc(OC)c(OC)c(OC)c2)[C@@H]1OC', 'Staphylococcus aureus MW2 delta-mecA (mecA-)', 'lo'),
  ('CC(=O)O[C@H]1C[C@@H]2CC[C@@H]3[C@H](CC[C@@]4(C)[C@H]3C[C@H]([N+]3(C)CCCCC3)[C@@H]4OC(C)=O)[C@@]2(C)C[C@@H]1N1CCCCC1', 'Staphylococcus aureus MW2 delta-mecA (mecA-)', 'mid');
